Every entry's value here was drawn from PubChem BioAssay AID1919013.

# Test system: LG0703-F498-PDC complex spheroid growth;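 also: luminescence taken as a proxy for viable cell amount; percent of DMSO vehicle control where 100% means growth equal to vehicle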
# experimental_protocol: Anticancer human tumor LG0703-F498-PDC patient-derived lung adenocarcinoma cell line growth inhibition [AhR]
# condition_notes: second compound 0.1 µM; first compound 0.01 µM; stronger effect = lower value
Give measured viability, T/C for each item. Keep answers brief.
// return numeric value only (unit: %, not printed)

Reported viability, T/C, compound CC1COCCN1c1cc(-c2ccnn2C)c2ccnc(-c3ccn[nH]3)c2n1 (stereo unspecified) + Cc1ccccc1N=Nc1ccc(NC(=O)c2ccnn2C)c(C)c1 : ____
88.5

// viability, T/C lookup, key: CC[C@@]1(O)C(=O)OCc2c1cc1n(c2=O)Cc2cc3c(CN(C)C)c(O)ccc3nc2-1 + Cc1ccccc1N=Nc1ccc(NC(=O)c2ccnn2C)c(C)c1
96.2

For the compound CC1COCCN1c1cc(-c2ccnn2C)c2ccnc(-c3ccn[nH]3)c2n1 (stereo unspecified) + Cc1cncc(-c2nc(NCCc3c[nH]c4ccccc34)c3ncn(C(C)C)c3n2)c1 , what viability, T/C is on record?
103

viability, T/C lookup needed for CC[C@@]1(O)C(=O)OCc2c1cc1n(c2=O)Cc2cc3c(CN(C)C)c(O)ccc3nc2-1 + Cc1cncc(-c2nc(NCCc3c[nH]c4ccccc34)c3ncn(C(C)C)c3n2)c1 , thanks.
89.2

Tell me the measured viability, T/C of CC1COCCN1c1cc(-c2ccnn2C)c2ccnc(-c3ccn[nH]3)c2n1 (stereo unspecified) + CC(CO)NC(=O)c1cc(-c2ccc(Cl)cc2)nn(-c2cnn(C)c2)c1=O , please.
104

Look at this compound and give its reported viability, T/C. CC[C@@]1(O)C(=O)OCc2c1cc1n(c2=O)Cc2cc3c(CN(C)C)c(O)ccc3nc2-1 + CC(CO)NC(=O)c1cc(-c2ccc(Cl)cc2)nn(-c2cnn(C)c2)c1=O
90.6
